Value source: ChEMBL document CHEMBL5346953

Give measured IC50 for each item. Keep answers brief.
assaySystem: Histamine H3 receptor (Homo sapiens)
Sequence (Q9Y5N1 whole entry): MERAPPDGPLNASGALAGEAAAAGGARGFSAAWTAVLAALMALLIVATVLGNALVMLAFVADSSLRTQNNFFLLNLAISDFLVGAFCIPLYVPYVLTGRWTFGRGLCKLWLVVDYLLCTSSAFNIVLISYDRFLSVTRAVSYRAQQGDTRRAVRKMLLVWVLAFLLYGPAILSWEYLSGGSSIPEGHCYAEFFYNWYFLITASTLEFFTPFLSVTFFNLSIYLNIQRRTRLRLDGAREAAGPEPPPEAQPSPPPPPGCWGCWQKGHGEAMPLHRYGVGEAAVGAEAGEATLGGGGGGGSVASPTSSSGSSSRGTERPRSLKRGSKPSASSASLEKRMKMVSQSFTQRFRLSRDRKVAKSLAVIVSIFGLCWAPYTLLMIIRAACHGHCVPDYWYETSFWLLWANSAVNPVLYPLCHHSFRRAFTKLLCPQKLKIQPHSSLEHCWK
testSummary: Inhibition of recombinant human histamine H3 receptor stably expressed in HEK293 cells assessed as increase in cAMP accumulation in presence of forskolin incubated for 30 mins by TR-FRET LANCE assay
Quick reminder: number only, in nM, skip the unit.

Request the reported IC50 associated with c1ccc(Nc2ccc(OCCCN3CCCCC3)cc2)cc1
83.7

Same question, N#Cc1ccc(-c2ccc(OCCCN3CCC(c4ccncc4)CC3)cc2)cc1 this time
215

Same question, c1ccc(-c2ccc(OCCCN3CCCCCC3)cc2)cc1 this time
83.4
